# reported IC50; entries follow
test description: Antiproliferative activity against human PC3 cells after 48 hrs by sulforhodamine B assay
Assay type: functional, cell-based
cond: PC-3, 48 h
test readout: IC50 (µM)

[
  {
    "molecule": "C=C1C(=O)O[C@H]2C/C(COC(=O)C(C)C)=C/CC[C@]3(C)O[C@H]3[C@@H](O)[C@H]12",
    "test readout": "IC50",
    "recorded measurement": 4.7
  },
  {
    "molecule": "CC(C)[C@@H]1CC[C@@]2(C)CCC[C@@](C)(O)[C@@H]2[C@@H]1OC(=O)/C=C/c1ccc(O)cc1",
    "test readout": "IC50",
    "recorded measurement": 4
  },
  {
    "molecule": "C=C(C)C(O)Cc1c(O)ccc(C(=O)/C=C/c2ccccc2)c1O (stereo unspecified)",
    "test readout": "IC50",
    "recorded measurement": 11
  },
  {
    "molecule": "CC(C)(O)C(O)Cc1c(O)ccc(C(=O)/C=C/c2ccccc2)c1O (stereo unspecified)",
    "test readout": "IC50",
    "recorded measurement": 35
  },
  {
    "molecule": "C=C(C)C(=O)OC/C1=C\\CC[C@]2(C)O[C@H]2[C@@H](O)[C@@H]2C(=C)C(=O)O[C@H]2C1",
    "test readout": "IC50",
    "recorded measurement": 12
  },
  {
    "molecule": "C=C(C)C(=O)O[C@H]1C/C(C=O)=C\\CC/C(C)=C/[C@H]2OC(=O)C(=C)[C@H]12",
    "test readout": "IC50",
    "recorded measurement": 3
  }
]
